system: Klebsiella aerogenes DSM 30053; experiment: fold change of Cadaverine concentration vs plate DMSO controls (fold change (ratio)); higher = more amine produced, active = hit call of the paper (significant change in both replicates, either direction); conditions: incubation time: 27 h, anaerobic, 37 °C
Structures can show the parent of a compound that is named as a salt.
Readout name: fold change of Cadaverine concentration
Just the number, please, no unit attached.

Qu. Specify reported fold change of Cadaverine concentration for the compound shown: Cc1ccc(S(=O)(=O)NCl)cc1 [Chloramine-T hydrate] (20 µM)
Ans. 1.02

Qu. Specify reported fold change of Cadaverine concentration for the compound shown: CCCOC(=O)NCCCN(C)C (20 µM)
Ans. 1.05

Qu. Specify reported fold change of Cadaverine concentration for the compound shown: c1ccc2cc3c(ccc4ccccc43)cc2c1 [Benz[a]anthracene] (20 µM)
Ans. 1.17

Qu. Specify reported fold change of Cadaverine concentration for the compound shown: CC(=O)OCC1=C(C(=O)O)N2C(=O)[C@@H](NC(=O)Cc3cccs3)[C@H]2SC1 [Cephalothin sodium salt] (20 µM)
Ans. 1.01

Qu. Specify reported fold change of Cadaverine concentration for the compound shown: C#CCN[C@@H]1CCc2ccccc21 [Rasagiline] (20 µM)
Ans. 0.974

Qu. Specify reported fold change of Cadaverine concentration for the compound shown: O=C(CCCCC(=O)Nc1c(I)cc(I)c(C(=O)O)c1I)Nc1c(I)cc(I)c(C(=O)O)c1I [Iodipamide] (20 µM)
Ans. 0.989

Qu. Specify reported fold change of Cadaverine concentration for the compound shown: CCOC(=O)C1=C(C)NC(C)=C(C(=O)OCC)C1c1ccccc1/C=C/C(=O)OC(C)(C)C [Lacidipine] (20 µM)
Ans. 0.979

Qu. Specify reported fold change of Cadaverine concentration for the compound shown: CC(=O)[C@H]1CC[C@H]2[C@@H]3CCC4=CC(=O)CC[C@]4(C)[C@H]3CC[C@]12C [Progesterone] (20 µM)
Ans. 1.02

Qu. Specify reported fold change of Cadaverine concentration for the compound shown: CCCC(=O)OCOC(=O)C1=C(C)NC(C)=C(C(=O)OC)C1c1cccc(Cl)c1Cl (configuration not stated) [Clevidipine] (20 µM)
Ans. 0.998

Qu. Specify reported fold change of Cadaverine concentration for the compound shown: O=C(Oc1cccc2cccnc12)c1ccccc1 [Benzoxiquine] (20 µM)
Ans. 1.01

Qu. Specify reported fold change of Cadaverine concentration for the compound shown: CN1CCN(C2=Nc3cc(Cl)ccc3Nc3ccccc32)CC1 [Clozapine] (20 µM)
Ans. 1

Qu. Specify reported fold change of Cadaverine concentration for the compound shown: CCCCNc1c(C(=O)OCC)c(C)nc2c1cnn2CC [Tracazolate hydrochloride] (20 µM)
Ans. 1

Qu. Specify reported fold change of Cadaverine concentration for the compound shown: NCCCC[C@H](N[C@@H](CCc1ccccc1)C(=O)O)C(=O)N1CCC[C@H]1C(=O)O [Lisinopril] (20 µM)
Ans. 1.02

Qu. Specify reported fold change of Cadaverine concentration for the compound shown: O=c1[nH]c(=O)n([C@H]2C[C@H](O)[C@@H](CO)O2)cc1/C=C/Br [Brivudine] (20 µM)
Ans. 1

Qu. Specify reported fold change of Cadaverine concentration for the compound shown: N=C(N)N1CCc2ccccc2C1 [Debrisoquin sulfate] (20 µM)
Ans. 0.993

Qu. Specify reported fold change of Cadaverine concentration for the compound shown: Nc1ccc(S(=O)(=O)c2ccc(N)cc2)cc1 [Dapsone] (20 µM)
Ans. 1

Qu. Specify reported fold change of Cadaverine concentration for the compound shown: O=C1CCC(N2C(=O)c3ccccc3C2=O)C(=O)N1 (configuration not stated) [Thalidomide] (20 µM)
Ans. 1

Qu. Specify reported fold change of Cadaverine concentration for the compound shown: CNCC(O)c1ccc(OC(=O)C(C)(C)C)c(OC(=O)C(C)(C)C)c1 (configuration not stated) [Dipivefrin hydrochloride] (20 µM)
Ans. 0.991

Qu. Specify reported fold change of Cadaverine concentration for the compound shown: OC[C@H]1O[C@@H](c2ccc(Cl)c(Cc3ccc(O[C@H]4CCOC4)cc3)c2)[C@H](O)[C@@H](O)[C@@H]1O [Empagliflozin] (20 µM)
Ans. 0.974

Qu. Specify reported fold change of Cadaverine concentration for the compound shown: CN[C@@H]1[C@@H](O)[C@@H](O[C@@H]2[C@@H](O)[C@H](O[C@H]3OC(CN)=CC[C@H]3N)[C@@H](N)C[C@H]2N)OC[C@]1(C)O [Sisomicin sulfate] (20 µM)
Ans. 1

Qu. Specify reported fold change of Cadaverine concentration for the compound shown: NCCc1cc[nH]n1 [Betazole hydrochloride] (20 µM)
Ans. 1

Qu. Specify reported fold change of Cadaverine concentration for the compound shown: NCCc1c[nH]cn1 [Histamine dihydrochloride] (20 µM)
Ans. 0.992

Qu. Specify reported fold change of Cadaverine concentration for the compound shown: CC1(C)S[C@@H]2[C@H](NC(=O)C(c3ccccc3)S(=O)(=O)O)C(=O)N2[C@H]1C(=O)O (some centres not stated) [Sulbenicillin sodium salt] (20 µM)
Ans. 1.08

Qu. Specify reported fold change of Cadaverine concentration for the compound shown: CNC(=O)OCc1cccc(COC(=O)NC)n1 [Pyricarbate] (20 µM)
Ans. 0.995

Qu. Specify reported fold change of Cadaverine concentration for the compound shown: CC(C)(Oc1ccc(C2CC2(Cl)Cl)cc1)C(=O)O (configuration not stated) [Ciprofibrate] (20 µM)
Ans. 0.992

Qu. Specify reported fold change of Cadaverine concentration for the compound shown: OC[C@H]1O[C@@H](O[C@H]2[C@H](O)[C@@H](O)[C@H](O)O[C@@H]2CO)[C@H](O)[C@@H](O)[C@H]1O [Lactose] (50 µM)
Ans. 1.02

Qu. Specify reported fold change of Cadaverine concentration for the compound shown: CC(=O)NCCCS(=O)(=O)O [Acamprosate calcium] (20 µM)
Ans. 1

Qu. Specify reported fold change of Cadaverine concentration for the compound shown: CCN(CC)CCOC(=O)C1(c2ccc([N+](=O)[O-])cc2)CCCC1 [Nitrocaramiphen hydrochloride] (20 µM)
Ans. 0.98

Qu. Specify reported fold change of Cadaverine concentration for the compound shown: CC1Cc2ccccc2N1NC(=O)c1ccc(Cl)c(S(N)(=O)=O)c1 (configuration not stated) [Indapamide] (20 µM)
Ans. 1

Qu. Specify reported fold change of Cadaverine concentration for the compound shown: O=P(O)(O)C(Cl)(Cl)P(=O)(O)O [Clodronate disodium] (20 µM)
Ans. 1

Qu. Specify reported fold change of Cadaverine concentration for the compound shown: OCCN1CCN(CC/C=C2/c3ccccc3Sc3ccc(Cl)cc32)CC1 [Zuclopenthixol dihydrochloride] (20 µM)
Ans. 0.992

Qu. Specify reported fold change of Cadaverine concentration for the compound shown: CCC(=O)O[C@]1(C(=O)CCl)[C@@H](C)C[C@H]2[C@@H]3CCC4=CC(=O)C=C[C@]4(C)[C@@]3(F)[C@@H](O)C[C@@]21C [Clobetasol propionate] (20 µM)
Ans. 0.999
